meta.source: patent US8722578B2

Outcome Measure: melting point

compound="C#CCOC(=O)OC1=C(c2cc(C)ccc2C)C(=O)NC12CCN(OC)CC2 [Compound P8]" outcome_measure="melting point" observed_measurement="151 to 153 °C"
compound="CON1CCC2(CC1)NC(=O)C(c1ccc(Br)cc1C)C2=O (centres unmarked) [Compound T22]" outcome_measure="melting point" observed_measurement="187 to 189 °C"
compound="CON1CCC2(CC1)NC(=O)C(c1cc(Br)ccc1C)C2=O (centres unmarked) [Compound T8]" outcome_measure="melting point" observed_measurement="194 to 196 °C"
compound="CCOC(=O)OC1=C(c2cc(-c3ccc(Cl)cc3)c(C)cc2C)C(=O)NC12CCN(OC)CC2 [Compound P53]" outcome_measure="melting point" observed_measurement="211 to 213 °C"

Let's switch to this compound now.
stdin: State its melting point: COC1=C(c2cc(C)ccc2C)C(=O)NC12CCN(OC)CC2 [Compound P11]
stdout: 203 to 205 °C

====

System: Echinochloa crus-galli (ECHCG)
Experiment: Example B post-emergence herbicidal activity, glasshouse pot test
Type: in vivo
Details: 312 h, rate 250 g/ha, evaluated after 13 days, read-out: ECHCG post-emergence activity (100=total damage to plant; 0=no damage to plant)
Outcome Measure: pest or weed control at 250 g/ha (%)
Numeric only. Scale: %

Study these solved cases before continuing.
molecule=CCOC(=O)OC1=C(c2cc(C3CC3)c(C)cc2C)C(=O)NC12CCN(OC)CC2 outcome_measure="pest or weed control at 250 g/ha" observed_measurement=70
molecule="CON1CCC2(CC1)NC(=O)C(c1c(C)cc(-c3ccc(Cl)cc3)cc1C)C2=O (stereo not shown)" outcome_measure="pest or weed control at 250 g/ha" observed_measurement=100
molecule=CCOC(=O)OC1=C(c2ccc(Br)cc2C)C(=O)NC12CCN(OC)CC2 outcome_measure="pest or weed control at 250 g/ha" observed_measurement=90

stdin: State the measured pest or weed control at 250 g/ha (Echinochloa crus-galli (ECHCG)) of CON1CCC2(CC1)NC(=O)C(c1c(C)cc(-c3ccc(Cl)cc3)cc1C)=C2OC(=O)C(C)(C)C
stdout: 30

====

System: Alopecurus myosuroides (ALOMY)
Assay: Example A pre-emergence herbicidal activity, glasshouse pot test
Format: in vivo
Details: 480 h, rate 250 g/ha, evaluated 20 days after spraying, read-out: ALOMY pre-emergence activity (100=total damage to plant; 0=no damage to plant)
Classification field: Y = pest or weed control at 250 g/ha at or over 40%; N = pest or weed control at 250 g/ha under 40%.

compound=CON1CCC2(CC1)NC(=O)C(c1ccc(Br)cc1Cl)=C2OC(=O)C(C)(C)C class_label=N
compound=CCOC(=O)OC1=C(c2cc(-c3ccc(Cl)cc3)c(C)cc2C)C(=O)NC12CCN(OC)CC2 class_label=N
compound=C=CCOC(=O)OC1=C(c2c(C)cc(C)cc2C)C(=O)NC12CCN(OC)CC2 class_label=Y

stdin: # bool: pest or weed control at 250 g/ha of CCOC(=O)OC1=C(c2ccc(Cl)cc2Cl)C(=O)NC12CCN(OC)CC2 >= 40%
stdout: N

stdin: # bool: pest or weed control at 250 g/ha of CCOC(=O)OC1=C(c2cc(-c3ccc(Cl)cc3)ccc2C)C(=O)NC12CCN(OC)CC2 >= 40%
stdout: N

stdin: # bool: pest or weed control at 250 g/ha of CON1CCC2(CC1)NC(=O)C(c1cc(-c3ccc(Cl)cc3)ccc1C)C2=O (stereo not drawn) >= 40%
stdout: N

stdin: # bool: pest or weed control at 250 g/ha of CCOC(=O)OC1=C(c2c(C)cc(C)cc2C)C(=O)NC12CCN(OC)CC2 >= 40%
stdout: Y

stdin: # bool: pest or weed control at 250 g/ha of CCOC(=O)OC1=C(c2c(C)cc(-c3ccc(Cl)cc3)cc2C)C(=O)NC12CCN(OC)CC2 >= 40%
stdout: Y
